Test: MMV: Cytotoxicity against human fibroblasts (MRC-5) cells.
Settings: MRC-5 cells (human fibroblasts)
pIC50: −log10 of the molar value.
Measurement Kind: pIC50

Example cases with answers are listed next.
• CCN(CC)CCCNc1nc(-c2ccc(Cl)cc2)nc2ccccc12 = 4.80
• CCCCNCC(O)(c1ccc(Cl)cc1)c1ccc(Cl)cc1 = < 4.49
• CC1CC(C)CN(C(=O)c2ccc(Cl)cc2Cl)C1 (stereo unspecified) = < 4.49
• O=C(NC1CCCCC1)C(c1cccs1)N(CCc1ccccc1)C(=O)c1ccco1 (stereo unspecified) = < 4.49
• CCCCNc1nc(NC(C)(C)C)nc(NC(C)(C)C)n1 = < 4.49
• COc1ccc(C)c2sc(N(Cc3cccnc3)C(=O)c3ccc(C#N)cc3)nc12 = < 4.49
• O=C(Nc1ccccc1O)c1ccc(-c2ccc(Cl)cc2Cl)o1 = < 4.49
• FC(F)(F)c1cccc(Nc2nc(-c3ccccc3)nc3ncccc23)c1 = < 4.49

Give pIC50 for all compounds that follow.
1. COc1ccc(C2Sc3ccccc3N=C3C2=C(O)c2ccccc23)cc1 (stereo unspecified)
2. O=C(NCc1ccco1)C1CCN(S(=O)(=O)c2ccc(Br)cc2)CC1
3. CCc1ccc(Nc2cc(C)c3ccc(O)cc3n2)cc1

output:
1: < 4.49; 2: < 4.49; 3: 5.11
